B1: Zinc finger homeobox protein 4, residues 2086 to 2141; numbered along this chain, Q86UP3 (parent)
chain: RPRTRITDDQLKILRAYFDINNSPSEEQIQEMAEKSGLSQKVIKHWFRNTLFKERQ

- Variants of: B1
- Assay Name: abundance fitness (aPCA) (normalised: wild type 0, dead -1); higher = more abundant; growth selection in yeast, the domain comes from the species named
- Run Parameters: Homo sapiens
Consider the following variants and their measured abundance fitness readings.
Parameter Measured: abundance fitness

| Mutant Label | Parameter Measured | Result Value |
| --- | --- | --- |
| D19A | abundance fitness | 0.011 |
| H45Q | abundance fitness | -0.006 |
| K44Y | abundance fitness | 0.049 |
| I29D | abundance fitness | -0.744 |
| W46S | abundance fitness | -0.406 |
| K44W | abundance fitness | -0.312 |
| H45F | abundance fitness | -0.082 |
| Q28R | abundance fitness | 0.037 |
| S39C | abundance fitness | -0.395 |
| V42L | abundance fitness | -0.085 |
| E34K | abundance fitness | -0.147 |
| V42K | abundance fitness | -0.079 |
| M32Y | abundance fitness | -0.212 |
| L38N | abundance fitness | -0.769 |
| H45R | abundance fitness | 0.08 |
| E31C | abundance fitness | -0.141 |
| S39W | abundance fitness | -1.16 |
| K35H | abundance fitness | -0.349 |
| E27P | abundance fitness | -0.24 |
| Q30L | abundance fitness | 0.031 |
| I29K | abundance fitness | -0.226 |
| E27V | abundance fitness | -0.071 |
| E54L | abundance fitness | -0.035 |
| G37T | abundance fitness | -0.083 |
| A33P | abundance fitness | -0.84 |
| K53M | abundance fitness | -0.114 |
| E31K | abundance fitness | 0.108 |
| P24A | abundance fitness | -0.294 |
| T50F | abundance fitness | -0.182 |
| R48A | abundance fitness | -0.047 |
| M32T | abundance fitness | -0.706 |
| N49L | abundance fitness | -0.172 |
| N49D | abundance fitness | 0.085 |
| E27W | abundance fitness | 0.021 |
| Q30S | abundance fitness | -0.159 |
| K44A | abundance fitness | 0.038 |
| S39A | abundance fitness | -0.163 |
| D19M | abundance fitness | -0.033 |
| M32N | abundance fitness | -1 |
| D19R | abundance fitness | -0.009 |
| I29F | abundance fitness | -0.02 |
| K53I | abundance fitness | 0.141 |
| E34D | abundance fitness | -0.014 |
| R48G | abundance fitness | -0.042 |
| Q40G | abundance fitness | -0.173 |
| S36P | abundance fitness | -0.874 |
